Hello, the source for this data is ChEMBL document CHEMBL1201862, in case you need it.

- Tested on: MDA-MB-231
- Assay Overview: NCI tumour cell line growth inhibition, 48 h
Structures can show the parent of a compound that is named as a salt. Activity calls are given as the source filed them. No stated cut-off is given here; in the data, active = GI50 up to about 1.1 µM and inactive = higher.

Compound	GI50
ON=C1CCCCC(=NO)CCCC1	> 100 µM (inactive)
O=c1c2ccccc2sc2cccc(NCCCN3CCN(CCCNc4cccc5sc6ccccc6c(=O)c45)CC3)c12	> 100 µM (inactive)
CC1(C)OCC(C2OC(=O)C(OCc3ccccc3)=C2OCc2ccccc2)O1 (stereo not given)	24.6 µM (inactive)
CC(=O)O[C@H]1CC[C@@]2(C)C(=CC[C@@H]3[C@@H]2CC[C@]2(C)c4nc(Cl)ccc4C[C@@H]32)C1	> 100 µM (inactive)
CC(C)(C)OC(=O)/C=C/C(=O)O/C=C/[N+](=O)[O-]	> 100 µM (inactive)
O=C1Nc2ccccc2/C1=c1\[nH]c(=O)/c(=C\c2ccc(OCc3ccccc3)cn2)[nH]c1=O	35.1 µM (inactive)
CN(Cc1cnc2nc(N)nc(N)c2n1)c1ccc(C(=O)NC(CO)CCCO)cc1 (stereo not given)	> 100 µM (inactive)
COC(=O)C(Cc1ccccc1)OC(=O)C(N)CC(=O)O (stereo not given)	> 100 µM (inactive)
C/C(CC(O)(/C=N/O)c1ccccc1)=N/O (stereo not given)	> 100 µM (inactive)
O=C1C2C3C=CC(C2C(=O)N1CN1CCOCC1)C1C2C(=O)N(CN4CCOCC4)C(=O)C2C31 (stereo not given)	> 100 µM (inactive)
Cn1c2ccccc2c2c3c(=O)[nH][nH]c(=O)c3c3c4ccccc4n(C)c3c21	> 100 µM (inactive)
CC(=O)/C=c1\[nH]/c(=C\C=C\c2ccccc2)c(=O)n1/C=C1\C(=O)Oc2ccccc2C1=O	> 100 µM (inactive)
NN=C(CC(O)(C(F)(F)Cl)C(F)(F)Cl)CC(O)(C(F)(F)Cl)C(F)(F)Cl	> 10 µM (inactive)
COc1cnc2cc(C(=O)O)c3ccccc3c2c1	> 100 µM (inactive)
COc1ccc(/C(=N/N=c2\[nH]c3ccccc3n2Cc2ccccc2)C(=O)O)cc1	23.3 µM (inactive)
CC#CC#C/C=C1/C=CC2(CCCCO2)O1 (stereo not given)	> 100 µM (inactive)
Cc1[nH]c(-c2ccccc2)c(O)c1C(=O)OC1CC(C)CCC1C(C)C (stereo not given)	15.5 µM (inactive)
O=C1c2ccccc2-c2c1c1ccccc1c(=O)n2Cc1ccccc1	50.1 µM (inactive)
Nc1cc(F)ccc1CC(=O)O	> 100 µM (inactive)
O=C(O)c1nc(-c2ccccn2)c(-c2ccccn2)nc1C(=O)O	9.82 µM (inactive)
CC(=O)O[C@H]1C(=O)[C@@]2(C)[C@H]([C@H](OC(=O)c3ccccc3)[C@]3(O)C[C@H](OC(=O)[C@H](O)[C@@H](NC(=O)c4ccccc4)c4cccc(N(C)C)c4)C(C)=C1C3(C)C)[C@]1(OC(C)=O)CO[C@@H]1C[C@@H]2O	0.542 µM (active)
C=C1CC(OC(C)=O)/C=C(/C)CCC(C(C)(C)O)CC1O (stereo not given)	> 100 µM (inactive)
Cc1cc(O)c2c(c1)C(C1c3cccc(O)c3C(=O)c3c(O)cc(C)cc31)c1cccc(O)c1C2=O (stereo not given)	0.405 µM (active)
NNC1=N/C(=C\c2ccco2)C(=O)N1	> 100 µM (inactive)
COc1cc(/C=C/c2ccc(OC)c(OC)c2)cc(OC)c1 [(E)-3,4,3',5'-TETRAMETHOXYSTILBENE]	22.9 µM (inactive)
CC1(C)C(=O)/C(=C/c2ccccc2)C(C)(C)C1(C)C	> 93.8 µM (inactive)
CCSc1s/c(=N/c2ccc(/N=c3\sc(C)c(SC)s3)cc2)sc1-c1ccc(C)cc1	> 100 µM (inactive)
O=C(OCCN1CCCCCC1)C(c1ccsc1)C1CCCCC1 (stereo not given) [CETIEDIL CITRATE]	16.7 µM (inactive)
COc1cc(C(c2ccc3c(c2)OCO3)C2SCCCS2)cc(OC)c1OC (stereo not given)	2.3 µM (inactive)
C=C1C2CC3CCC2C(OC(=O)c2ccccc2C(=O)O)C13 (stereo not given)	> 100 µM (inactive)
